Data credit: PubChem BioAssay AID743398

Test: Wnt/beta-catenin pathway activators, primary screen, cell-based, plate reader, single point (AID 743398);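 also: 0% = neutral control wells and 100% = positive control wells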
Conditions: Wnt/beta-catenin reporter cell assay, activator, at 9.35 µM
Screen size: about 300,000 compounds; about 3,600 (1.2%) were called active. Rule as the data show it: active = activation above about 30% (passing the limit was not always enough); inconclusive = no clear call, values can overlap the other calls. Only a selection was taken, and actives are over-represented in it overall.
# output must be one of active, inactive

O=C(c1ccc(F)cc1)n1c(=S)nc2ccccn21; active
Cn1ccc(NC(=O)Nc2ccc(Cl)cc2)n1; inactive

Now consider a different molecule.
Record lookup: outcome of this test for "O=C(Cn1c(=S)nc2ccccn21)N1CCc2ccccc2C1" ?
inactive

----------
Experiment: Wnt/beta-catenin pathway activators, primary screen, cell-based, plate reader, single point (AID 743398);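 also: 0% = neutral control wells and 100% = positive control wells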
Conditions: Wnt/beta-catenin reporter cell assay, activator, at 9.35 µM
Hit rate of the full screen: of about 300,000 compounds, about 3,600 (1.2%) were called active. Rule as the data show it: active = activation above about 30% (passing the limit was not always enough); inconclusive = no clear call, values can overlap the other calls. Many of the other results were omitted from the sample, so actives are more common in it than they were.
# output must be one of active, inactive

Example entries begin here.
CCOC(=O)N1CCN(C(=O)C[C@@H]2C[C@@]3(C(=O)OC)CC(C)(C)CC=C3N(Cc3ccco3)C2=O)CC1; inactive
O=C(COc1ccc([N+](=O)[O-])cc1)Nc1ccc(N2CCCC2)cc1; inactive
Cc1cc(/C=C2/SC(=O)N(CC(=O)OC(C)C)C2=O)c(C)n1C; active

Record lookup: outcome of this test for CN(C)c1ccc(C2Nc3ccccc3C(=O)N2NS(=O)(=O)c2ccccc2)cc1 (centres undefined) ?
inactive

Record lookup: outcome of this test for "O=C(NCC(=O)N1CCCCCCC1)c1ccccc1Cl" ?
inactive

Record lookup: outcome of this test for COCc1[nH]nc2c1C(c1ccccc1)N(c1ccccc1)C2=O (centres undefined) ?
inactive

Record lookup: outcome of this test for "COC(=O)[C@]1(Cc2ccccc2)NC=C(C(=O)c2ccccc2)[C@@H]1c1cccc(OC)c1" ?
inactive

----------
Experiment: Wnt/beta-catenin pathway activators, primary screen, cell-based, plate reader, single point (AID 743398);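 also: 0% = neutral control wells and 100% = positive control wells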
Conditions: Wnt/beta-catenin reporter cell assay, activator, at 9.35 µM, active compounds read high
Among all 300,000 compounds or so, about 3,600 (1.2%) were called active. The full list was thinned out, with actives kept by preference.
outcomeMeasure: activation (%)
Reply numerically in %, unit not repeated.

Fill in the blank: the reported activation of "Cc1ccc(NC(=O)c2csc3c2CCCC3)cc1" is ____.
33.5

Fill in the blank: the reported activation of "CCc1noc(C)c1C(=O)Nc1nc2ccc(OC)cc2s1" is ____.
9.85

Fill in the blank: the reported activation of CCOC(=O)C(=O)C1C(=O)Nc2ccccc21 (stereo not drawn) is ____.
3.02

Fill in the blank: the reported activation of CC(=O)NC(c1cccs1)c1cc(Br)c2cccnc2c1O (stereo not drawn) is ____.
-2.66

Fill in the blank: the reported activation of "CCOC(=O)Cn1c2c(n(-c3ccc(F)cc3)c1=O)C=C(c1ccccc1)[C@@H](C)C(C(=O)N(C)C1CCCCC1)=C2" is ____.
-5.16

Fill in the blank: the reported activation of COc1ccc(-c2cc3c(c4c2ccn4C)C2CCC3C2)cn1 (stereo not drawn) is ____.
-0.553

Fill in the blank: the reported activation of "C=CCc1cccc2cc(C(=O)NC3CCCC3)c(=O)oc12" is ____.
-0.536
